Molecular target: T1, human Ang-2 (human, UniProt O15123)
T1 chain: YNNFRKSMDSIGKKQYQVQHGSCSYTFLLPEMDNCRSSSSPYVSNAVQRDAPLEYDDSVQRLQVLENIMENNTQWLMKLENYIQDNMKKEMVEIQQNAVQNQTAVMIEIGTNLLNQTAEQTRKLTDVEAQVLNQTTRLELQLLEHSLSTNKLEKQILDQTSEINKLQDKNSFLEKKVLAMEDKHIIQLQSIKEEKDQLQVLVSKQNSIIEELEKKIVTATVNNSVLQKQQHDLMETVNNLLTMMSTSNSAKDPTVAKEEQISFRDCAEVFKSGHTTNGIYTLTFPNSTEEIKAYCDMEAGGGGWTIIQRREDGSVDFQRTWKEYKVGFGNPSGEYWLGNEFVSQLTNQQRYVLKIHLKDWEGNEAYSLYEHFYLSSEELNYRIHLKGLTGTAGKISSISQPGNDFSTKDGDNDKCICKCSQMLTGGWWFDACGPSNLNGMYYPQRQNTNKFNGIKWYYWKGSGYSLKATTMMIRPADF
Assay: competition ELISA vs Tie-2
pIC50: −log10 of the molar value. Primed or numbered codes have the meaning given here. Where no end group is shown, it is not given here. [ ]: non-standard residue; d: D form. Fc = immunoglobulin Fc domain fused to the peptide (peptibody); Fc(7) = Fc domain, peptide fused N- or C-terminal to it
Reported metric: pIC50

{"Binder": "2xL1 (N) (designed binder) MGAQKFNPLDELEETLYEQFTFQQGGGGGGGGKFNPLDELEETLYEQFTFQQLEGGGGG[Fc(7)]", "Observed value": 9.19}
{"Binder": "MGAQQEECEWDPWTCEHMLEGGGGG[Fc] (not fully specified (bridges); printed as MGAQQEECEWDPWTCEHMLEGGGGG-Fc; cysteine pairing not given here; also: Fc fusion domain at position 26) [Con4 (N)]", "Observed value": 9.07}
{"Binder": "MGAQQYGCDGFLYGCMINLEGGGGG[Fc(7)] (not fully specified (bridges); printed as MGAQ-QYGCDGFLYGCMINLE-GGGGG-Fc; cysteine pairing not given here; also: Fc fusion domain at position 26) [C17 (N)]", "Observed value": 8.05}
{"Binder": "MGAQKRPCEEMWGGCNYDLEGGGGGX (not fully specified (C-terminus, bridges); printed as MGAQ-KRPCEEMWGGCNYDLEGGGGG-Fc; cysteine pairing not given here) [TN8-8 (N)]", "Observed value": 7.10}
{"Binder": "MGAQKRPCEEIFGGCTYQLEGGGGG[Fc] (not fully specified (bridges); printed as MGAQ-KRPCEEIFGGCTYQLEGGGGG-Fc; cysteine pairing not given here; also: Fc fusion domain at position 26) [Con1 (N)]", "Observed value": 7.59}

Data provenance is patent US7205275.
